testSystem: PI3Kα (Homo sapiens, UniProt P42336)
Sequence (P42336 whole entry): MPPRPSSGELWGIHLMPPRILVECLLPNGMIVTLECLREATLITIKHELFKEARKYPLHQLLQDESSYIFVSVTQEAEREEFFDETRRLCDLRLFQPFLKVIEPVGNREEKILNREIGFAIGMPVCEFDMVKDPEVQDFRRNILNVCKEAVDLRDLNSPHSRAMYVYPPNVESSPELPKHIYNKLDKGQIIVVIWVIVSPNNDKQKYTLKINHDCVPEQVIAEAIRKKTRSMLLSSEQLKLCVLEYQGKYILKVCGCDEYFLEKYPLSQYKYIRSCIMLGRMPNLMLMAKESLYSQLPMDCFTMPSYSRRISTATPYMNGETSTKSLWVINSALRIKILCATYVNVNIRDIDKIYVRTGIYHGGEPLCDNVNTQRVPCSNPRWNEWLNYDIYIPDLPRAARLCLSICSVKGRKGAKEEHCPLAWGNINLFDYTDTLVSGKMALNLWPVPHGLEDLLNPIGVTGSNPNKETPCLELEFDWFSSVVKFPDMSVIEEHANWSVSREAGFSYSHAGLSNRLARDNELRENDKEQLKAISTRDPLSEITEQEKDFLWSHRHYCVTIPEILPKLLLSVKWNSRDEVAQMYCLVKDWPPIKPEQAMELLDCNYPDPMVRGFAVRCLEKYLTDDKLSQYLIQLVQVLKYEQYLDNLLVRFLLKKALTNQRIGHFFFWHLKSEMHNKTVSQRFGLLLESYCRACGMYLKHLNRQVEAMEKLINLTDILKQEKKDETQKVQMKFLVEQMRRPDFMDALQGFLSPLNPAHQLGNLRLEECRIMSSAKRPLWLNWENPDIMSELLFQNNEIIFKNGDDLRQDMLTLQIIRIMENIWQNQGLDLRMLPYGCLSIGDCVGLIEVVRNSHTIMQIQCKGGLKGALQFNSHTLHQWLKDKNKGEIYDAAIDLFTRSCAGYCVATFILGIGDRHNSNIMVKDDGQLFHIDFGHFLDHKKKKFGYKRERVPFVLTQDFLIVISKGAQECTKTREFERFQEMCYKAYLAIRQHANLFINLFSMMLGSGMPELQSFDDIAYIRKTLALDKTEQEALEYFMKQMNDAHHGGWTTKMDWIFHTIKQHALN
Sequence (P27986 whole entry partner): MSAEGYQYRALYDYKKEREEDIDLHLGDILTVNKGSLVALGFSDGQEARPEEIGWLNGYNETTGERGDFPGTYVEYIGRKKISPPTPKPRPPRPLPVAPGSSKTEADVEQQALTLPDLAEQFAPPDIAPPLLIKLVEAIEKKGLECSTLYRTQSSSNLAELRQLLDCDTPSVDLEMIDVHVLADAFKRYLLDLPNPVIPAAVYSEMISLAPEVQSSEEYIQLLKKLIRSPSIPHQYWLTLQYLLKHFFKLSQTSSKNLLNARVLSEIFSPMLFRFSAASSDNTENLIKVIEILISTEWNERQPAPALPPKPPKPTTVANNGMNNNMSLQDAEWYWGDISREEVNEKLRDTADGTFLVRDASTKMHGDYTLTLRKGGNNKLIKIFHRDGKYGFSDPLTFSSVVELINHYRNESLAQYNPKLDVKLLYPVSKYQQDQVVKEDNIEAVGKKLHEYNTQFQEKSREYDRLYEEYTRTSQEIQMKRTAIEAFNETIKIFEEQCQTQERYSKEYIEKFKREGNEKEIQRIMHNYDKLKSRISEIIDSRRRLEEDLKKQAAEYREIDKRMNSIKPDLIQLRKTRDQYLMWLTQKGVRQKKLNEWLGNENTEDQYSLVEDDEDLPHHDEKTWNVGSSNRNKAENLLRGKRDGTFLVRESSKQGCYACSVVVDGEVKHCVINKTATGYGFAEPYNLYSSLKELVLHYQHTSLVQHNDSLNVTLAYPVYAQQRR
assayInfo: pAKT S473 ELISA in A549 cells (PI3Kα activation)
Format: cell-based
Set-up: endogenous in cells; host or cells: A549
runConditions: A549 cells, 15 min treatment, pAKT S473 ELISA, normalised to Emax of 1 μM insulin; read-out: Av EC50
metricName: EC50

Consider the reported EC50 for these compounds:
CCN1CCN(c2ccc(Nc3cc(Nc4cc(C(C)(C)C)nn4C)ccn3)cc2)CC1 = 2.2 µM
COc1cc(Nc2cc(Nc3cccc4c3N(C(C)=O)CC4)ccn2)cc(OC)c1OC = 1.96 µM
COc1cc(C#N)ccc1Nc1cc(Nc2cccc3c2N(C(C)=O)CC3)ccn1 = > 50 µM
COc1cc(N2CCN(C)CC2)ccc1Nc1cc(Nc2ccnc3ccccc23)ccn1 = 1.36 µM
COc1cc(C(=O)N2CCOCC2)ccc1Nc1cc(Nc2cccc3c2N(C(C)=O)CC3)ccn1 = 2.29 µM

Q: Checklist item: EC50 tested on PI3Kα (Homo sapiens, UniProt P42336), entry CNC(=O)c1ccc(Nc2cc(Nc3cccc4c3N(C(C)=O)CC4)ccn2)c(OC)c1 , value?
Result: 5.18 µM

Q: Quick check: EC50 on PI3Kα (Homo sapiens, UniProt P42336), item CNC(=O)c1ccccc1Nc1ccnc(Nc2ccc(N3CCOCC3)cc2OC)c1 ?
Result: 1.58 µM

Source listed as patent US20250263404A1.
